Target: Serine/threonine-protein kinase B-raf (Homo sapiens) (UniProt P15056);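 further: mean percent inhibition of BRAF kinase activity, from the GSK PKIS kinase inhibitor screening set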
Sequence (P15056 whole entry): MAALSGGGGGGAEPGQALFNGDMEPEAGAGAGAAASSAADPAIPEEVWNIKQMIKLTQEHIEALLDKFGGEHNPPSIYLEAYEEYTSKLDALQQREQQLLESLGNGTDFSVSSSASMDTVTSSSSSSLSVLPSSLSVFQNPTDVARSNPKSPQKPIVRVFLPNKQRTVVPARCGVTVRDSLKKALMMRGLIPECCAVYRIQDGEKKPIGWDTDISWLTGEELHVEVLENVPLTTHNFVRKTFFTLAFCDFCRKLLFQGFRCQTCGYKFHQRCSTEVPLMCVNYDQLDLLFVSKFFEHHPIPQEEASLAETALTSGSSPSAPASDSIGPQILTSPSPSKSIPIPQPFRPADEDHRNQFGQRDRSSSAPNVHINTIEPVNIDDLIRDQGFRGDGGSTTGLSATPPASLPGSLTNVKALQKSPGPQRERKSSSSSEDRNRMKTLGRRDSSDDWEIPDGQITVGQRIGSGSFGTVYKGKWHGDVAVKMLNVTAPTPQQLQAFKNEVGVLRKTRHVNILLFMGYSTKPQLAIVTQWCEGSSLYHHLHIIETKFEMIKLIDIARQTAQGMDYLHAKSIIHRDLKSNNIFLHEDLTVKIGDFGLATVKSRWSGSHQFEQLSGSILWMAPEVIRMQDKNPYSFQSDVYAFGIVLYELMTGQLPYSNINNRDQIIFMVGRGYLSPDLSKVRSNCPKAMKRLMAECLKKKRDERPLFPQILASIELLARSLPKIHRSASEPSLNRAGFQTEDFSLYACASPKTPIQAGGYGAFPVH
Details: at 0.1 µM
Measured inhibition by item
Answer in %, number only, no unit symbol.

Example compounds with recorded inhibition:
c1cnn2ncc(-c3ccnc(NCCCN4CCOCC4)n3)c2c1
5.35
Fc1ccc(Nc2nccc(-c3c(-c4ccc(C(F)(F)F)cc4)nn4ncccc34)n2)cc1F
3.42
Cc1nnc(-c2cccc(-c3ccc(C(=O)NCC4CC4)cc3)c2)o1
8.68
Cc1ccc(-c2cc3c(NC(=O)C4CC4)ncnc3o2)cc1
4.57
O=C(O[C@H]1CN[C@H](C#Cc2cc3ncnc(Nc4ccc5c(ccn5Cc5cc(F)ccc5F)c4)c3s2)C1)N1CCOCC1
6

Input: So what does the record say about inhibition for `NC(=O)c1ccc2c(-c3ccnc(NCCCO)n3)c(-c3ccc(F)cc3)nn2c1` ?
Output: 10.9

Input: So what does the record say about inhibition for `COc1cccc(-n2ncc3c(N/N=C/c4ccc(C(=O)NCCN(C)C)cc4)ncnc32)c1` ?
Output: 11.1

Input: So what does the record say about inhibition for `CNC(=O)c1cncc(/C=C/c2ccccc2C)c1` ?
Output: 6.43

Input: So what does the record say about inhibition for `CCn1c(-c2nonc2N)nc2cncc(C(=O)NCCNC)c21` ?
Output: 7.93

Input: So what does the record say about inhibition for `CNC(=O)c1sc(-n2cnc3cc(OC)c(OC)cc32)cc1OCc1ccccc1C(F)(F)F` ?
Output: 6.42

----------
Molecular target: Platelet-derived growth factor receptor beta (Homo sapiens) (UniProt P09619);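 further: each value is a mean percent inhibition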
Sequence (P09619 whole entry): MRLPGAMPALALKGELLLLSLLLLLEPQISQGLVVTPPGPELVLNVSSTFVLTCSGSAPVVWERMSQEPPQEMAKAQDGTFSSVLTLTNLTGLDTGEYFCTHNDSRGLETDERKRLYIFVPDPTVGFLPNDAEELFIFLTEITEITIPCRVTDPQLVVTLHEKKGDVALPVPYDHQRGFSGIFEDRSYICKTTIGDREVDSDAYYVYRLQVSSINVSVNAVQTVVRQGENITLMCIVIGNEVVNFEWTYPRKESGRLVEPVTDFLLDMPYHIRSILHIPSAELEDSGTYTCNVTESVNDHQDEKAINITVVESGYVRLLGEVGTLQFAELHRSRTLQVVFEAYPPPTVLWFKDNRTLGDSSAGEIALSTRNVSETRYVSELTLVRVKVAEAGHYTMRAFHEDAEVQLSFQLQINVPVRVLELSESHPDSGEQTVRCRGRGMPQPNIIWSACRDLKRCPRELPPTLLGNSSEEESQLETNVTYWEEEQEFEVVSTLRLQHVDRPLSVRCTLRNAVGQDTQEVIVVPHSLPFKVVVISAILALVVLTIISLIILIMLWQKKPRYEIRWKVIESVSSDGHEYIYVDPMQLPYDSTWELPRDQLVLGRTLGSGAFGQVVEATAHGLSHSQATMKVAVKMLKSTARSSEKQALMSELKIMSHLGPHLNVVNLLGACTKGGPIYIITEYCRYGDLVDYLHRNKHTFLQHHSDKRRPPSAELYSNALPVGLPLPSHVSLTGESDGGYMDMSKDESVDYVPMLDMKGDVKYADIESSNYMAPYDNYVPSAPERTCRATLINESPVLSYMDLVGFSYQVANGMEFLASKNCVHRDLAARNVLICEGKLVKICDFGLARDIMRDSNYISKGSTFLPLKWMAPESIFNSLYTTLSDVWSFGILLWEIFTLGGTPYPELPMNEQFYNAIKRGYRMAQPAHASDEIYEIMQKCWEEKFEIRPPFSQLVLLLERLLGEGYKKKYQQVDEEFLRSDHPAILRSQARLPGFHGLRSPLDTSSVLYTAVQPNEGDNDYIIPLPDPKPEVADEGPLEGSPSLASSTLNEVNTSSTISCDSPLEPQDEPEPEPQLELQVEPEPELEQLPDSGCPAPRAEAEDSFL
Conditions: at 1 µM
Mark fulfilled for reported inhibition of 30% or greater; mark not fulfilled for anything smaller.

Answered cases to consult:
CS(=O)(=O)CCNCc1ccc(-c2ccc3ncnc(Nc4ccc(OCc5ccccc5)cc4)c3c2)o1
not fulfilled
OCCCNc1nccc(-c2c(-c3ccc(F)cc3)nn3cc(C(F)(F)F)ccc23)n1
not fulfilled
NS(=O)(=O)c1ccc(N/N=C2\C(=O)Nc3ccc(C(=O)NCc4ccncc4)cc32)cc1
fulfilled
O=C1Nc2ccccc2/C1=C1\CCc2cc(O)ccc21
fulfilled

Input: Decide: inhibition of CC1=C(C(=O)Nc2ccc3[nH]ncc3c2)C(c2ccc(F)cc2)N=C(c2ccc(C(F)(F)F)nc2)N1 (stereo not drawn) >= 30%?
Output: not fulfilled

Input: Decide: inhibition of `FC(F)(F)CNc1nccc(-c2cnn3ncccc23)n1` >= 30%?
Output: not fulfilled

Input: Decide: inhibition of `NS(=O)(=O)c1cccc(N/C=C2\C(=O)Nc3ccccc32)c1` >= 30%?
Output: not fulfilled

Input: Decide: inhibition of `COc1cccc(Nc2nccc(-c3cnn4ncccc34)n2)c1` >= 30%?
Output: fulfilled

Input: Decide: inhibition of `COc1c(C(N)=O)cc(-c2ccc(Cl)cc2)cc1-c1ccc(S(N)(=O)=O)cc1` >= 30%?
Output: not fulfilled

Input: Decide: inhibition of `CC1(C)CC(n2cnc(-c3ccc(F)cc3)c2-c2ccnc(N)n2)CC(C)(C)N1` >= 30%?
Output: not fulfilled

Input: Decide: inhibition of `COc1ccccc1-c1cc(/C=C2\C(=O)Nc3ncc(Br)cc32)cc(Br)c1O` >= 30%?
Output: not fulfilled

Input: Decide: inhibition of `Fc1cccc(COc2ccc(Nc3ncncc3C#Cc3ccccc3)cc2Cl)c1` >= 30%?
Output: not fulfilled

----------
Measured inhibition by item
Target: Dual specificity tyrosine-phosphorylation-regulated kinase 2 (Homo sapiens);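 further: reported values are means of DYRK2 inhibition from screening the GSK PKIS collection at 1 µM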
Conditions: at 1 µM
Answer in %, number only, no unit symbol.

Example compounds with recorded inhibition:
CNC(=O)c1cncc(/C=C/c2ccccc2C)c1
3.1
CS(=O)(=O)Nc1ccc(-c2cc(-c3ccccc3)cc(C(N)=O)c2N)cc1
2.18
CNC(=O)c1sc(-n2cnc3cc(OC)c(OC)cc32)cc1OCc1ccccc1C(F)(F)F
1.34
CN1CCC(n2cnc(-c3ccc(F)cc3)c2-c2ccnc(NCCO)n2)CC1
3.9

Moving on to the next compound.
Input: So what does the record say about inhibition for `CCOc1ccc2c(-c3ccnc(Nc4cc(OC)cc(C(F)(F)F)c4)n3)cnn2n1` ?
Output: 5.62

----------
Measured inhibition by item
Tested on: Receptor-type tyrosine-protein kinase FLT3 (Homo sapiens), P36888 [D835Y]
Sequence (whole entry): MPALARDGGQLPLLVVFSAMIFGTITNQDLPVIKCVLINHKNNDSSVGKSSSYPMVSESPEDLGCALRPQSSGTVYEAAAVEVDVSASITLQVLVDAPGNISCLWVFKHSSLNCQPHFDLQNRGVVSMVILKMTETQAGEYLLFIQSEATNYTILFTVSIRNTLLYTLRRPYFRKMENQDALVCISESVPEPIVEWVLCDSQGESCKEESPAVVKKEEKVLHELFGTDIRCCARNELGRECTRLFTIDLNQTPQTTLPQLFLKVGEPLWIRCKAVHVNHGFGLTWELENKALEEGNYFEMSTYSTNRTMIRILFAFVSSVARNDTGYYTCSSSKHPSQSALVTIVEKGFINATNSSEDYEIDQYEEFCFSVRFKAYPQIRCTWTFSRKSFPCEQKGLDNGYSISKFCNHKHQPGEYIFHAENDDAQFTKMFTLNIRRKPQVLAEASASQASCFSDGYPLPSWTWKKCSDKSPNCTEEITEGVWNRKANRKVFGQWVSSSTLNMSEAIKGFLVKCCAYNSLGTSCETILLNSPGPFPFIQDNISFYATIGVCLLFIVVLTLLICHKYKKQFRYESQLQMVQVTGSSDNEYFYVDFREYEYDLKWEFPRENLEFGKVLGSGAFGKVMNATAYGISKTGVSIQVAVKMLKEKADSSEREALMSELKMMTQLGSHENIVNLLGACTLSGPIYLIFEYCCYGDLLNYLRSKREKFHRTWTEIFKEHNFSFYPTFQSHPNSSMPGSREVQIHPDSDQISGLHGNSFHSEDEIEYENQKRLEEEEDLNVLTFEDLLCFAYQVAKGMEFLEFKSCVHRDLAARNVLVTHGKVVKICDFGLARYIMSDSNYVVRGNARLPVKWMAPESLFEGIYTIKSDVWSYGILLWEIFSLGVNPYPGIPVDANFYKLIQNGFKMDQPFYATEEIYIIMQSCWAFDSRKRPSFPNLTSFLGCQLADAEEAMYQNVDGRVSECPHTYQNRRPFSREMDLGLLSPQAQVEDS
Conditions: at 0.1 µM
Answer in %, number only, no unit symbol.

Example compounds with recorded inhibition:
CCn1c(-c2nonc2N)nc2cncc(C(=O)NCCNC)c21
-3.83
CN(c1ccc(NC(=O)NCCN2CCOCC2)cc1)c1ccnc(Nc2ccc(CS(C)(=O)=O)cc2)n1
8.58
CNC(=O)c1ncccc1Nc1nc(Nc2cc3c(cc2OC)CCCN3C(=O)CN(C)C)nc2[nH]ccc12
1.41
CN(C)CCNC(=O)Nc1ccc(N(C)c2ccnc(Nc3ccc(CS(C)(=O)=O)cc3)n2)cc1
-5.17
NS(=O)(=O)c1ccc(N/N=C2\C(=O)Nc3cccc(CCc4ccncc4)c32)cc1
50.7

Input: Report inhibition for `FC(F)(F)CNc1nccc(-c2cnn3ncccc23)n1` tested on Receptor-type tyrosine-protein kinase FLT3 (Homo sapiens), P36888 [D835Y].
Output: -2.63

Input: Report inhibition for `O=C1Nc2ccccc2/C1=C1\CCc2cc(O)ccc21` tested on Receptor-type tyrosine-protein kinase FLT3 (Homo sapiens), P36888 [D835Y].
Output: 27.1

Input: Report inhibition for `CS(=O)(=O)Nc1ccc(-c2cc(-c3ccccc3)cc(C(N)=O)c2N)cc1` tested on Receptor-type tyrosine-protein kinase FLT3 (Homo sapiens), P36888 [D835Y].
Output: -2.16

----------
System: Epidermal growth factor receptor (Homo sapiens), P00533 [T790M]
Sequence (P00533 whole entry T790M): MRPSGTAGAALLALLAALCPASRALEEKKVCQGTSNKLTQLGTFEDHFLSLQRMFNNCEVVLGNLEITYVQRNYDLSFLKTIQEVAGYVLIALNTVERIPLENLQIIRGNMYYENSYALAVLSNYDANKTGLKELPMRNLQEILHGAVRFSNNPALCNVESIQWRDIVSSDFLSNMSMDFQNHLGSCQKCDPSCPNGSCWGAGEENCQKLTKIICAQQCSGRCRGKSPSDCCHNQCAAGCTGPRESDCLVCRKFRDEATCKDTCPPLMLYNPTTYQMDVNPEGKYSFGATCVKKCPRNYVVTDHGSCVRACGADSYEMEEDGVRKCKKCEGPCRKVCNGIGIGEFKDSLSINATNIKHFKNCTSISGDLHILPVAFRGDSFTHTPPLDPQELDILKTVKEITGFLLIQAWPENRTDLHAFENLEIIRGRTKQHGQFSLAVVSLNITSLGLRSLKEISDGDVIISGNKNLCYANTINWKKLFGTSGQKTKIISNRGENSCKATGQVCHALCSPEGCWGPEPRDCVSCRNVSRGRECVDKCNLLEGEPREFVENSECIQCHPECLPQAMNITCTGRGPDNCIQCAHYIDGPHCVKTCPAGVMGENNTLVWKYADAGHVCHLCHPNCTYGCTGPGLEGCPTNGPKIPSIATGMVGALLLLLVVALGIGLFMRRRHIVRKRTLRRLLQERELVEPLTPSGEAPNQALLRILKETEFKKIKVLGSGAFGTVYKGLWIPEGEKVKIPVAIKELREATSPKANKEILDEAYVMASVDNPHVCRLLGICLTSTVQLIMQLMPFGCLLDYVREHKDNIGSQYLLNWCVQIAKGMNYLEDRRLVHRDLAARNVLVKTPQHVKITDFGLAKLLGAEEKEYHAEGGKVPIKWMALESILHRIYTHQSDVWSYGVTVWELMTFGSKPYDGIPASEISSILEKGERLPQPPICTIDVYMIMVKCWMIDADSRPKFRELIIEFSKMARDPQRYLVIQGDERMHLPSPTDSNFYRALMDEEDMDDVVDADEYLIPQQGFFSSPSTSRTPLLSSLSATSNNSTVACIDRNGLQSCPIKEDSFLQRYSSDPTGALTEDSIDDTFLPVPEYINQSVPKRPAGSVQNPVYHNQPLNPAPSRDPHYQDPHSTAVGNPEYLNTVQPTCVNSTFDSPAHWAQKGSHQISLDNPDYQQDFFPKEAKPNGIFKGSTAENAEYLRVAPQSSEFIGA
Settings: at 0.1 µM
Measured inhibition by item
Answer in %, number only, no unit symbol.

Example compounds with recorded inhibition:
CCn1c(-c2nonc2N)nc2cncc(C(=O)NCCNC)c21
2.41
Cc1nnc(-c2cccc(-c3ccc(C(=O)NCC4CC4)cc3)c2)o1
3.93

Input: So what does the record say about inhibition for `COc1ccc2ncn(-c3cc(O[C@H](C)c4ccccc4C(F)(F)F)c(C(N)=O)s3)c2c1` ?
Output: -1.45

----------
Target: Mast/stem cell growth factor receptor Kit (Homo sapiens);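 further: values are mean inhibition of KIT, from the GSK PKIS dataset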
Settings: at 0.1 µM
REPORTED ENDPOINT: inhibition
Give the figure together with its unit, number first.

CN(C)CCNC(=O)Nc1ccc(N(C)c2ccnc(Nc3ccc(CS(C)(=O)=O)cc3)n2)cc1
13.9%
O=C(O[C@H]1CN[C@H](C#Cc2cc3ncnc(Nc4ccc(OCc5cccc(F)c5)c(Cl)c4)c3s2)C1)N1CCOCC1
5.01%
CS(=O)(=O)CCNCc1ccoc1-c1ccc2ncnc(Nc3ccc(OCc4ccccc4)cc3)c2c1
1.94%

Moving on to the next molecule.
Input: So what does the record say about inhibition for `NS(=O)(=O)c1ccc(N/N=C2\C(=O)Nc3ccc(C(=O)NCc4ccncc4)cc32)cc1` ?
Output: 4.44%

----------
Target: Cyclin-dependent kinase 2 (Homo sapiens) (UniProt P24941)
Conditions: at 1 µM
REPORTED ENDPOINT: inhibition (%)
Answer in %, number only, no unit symbol.

Example molecules with recorded inhibition:
COc1ccc(Nc2ncc(-c3ccccc3)o2)cc1OC
31.6
COc1cccc(-n2ncc3c(N/N=C/c4ccc(C(=O)NCCN(C)C)cc4)ncnc32)c1
89.9
CCOc1ccc2c(-c3ccnc(Nc4cc(OC)cc(C(F)(F)F)c4)n3)cnn2n1
12.5
N#Cc1ccc2c(-c3ccnc(NC4CC4)n3)c(-c3ccc(F)cc3)nn2c1
0.36
Cc1nnc(-c2cccc(-c3ccc(C(=O)NCC4CC4)cc3)c2)o1
13.5

Input: Report inhibition for `NS(=O)(=O)c1cccc(N/C=C2\C(=O)Nc3ccccc32)c1` tested on Cyclin-dependent kinase 2 (Homo sapiens) (UniProt P24941).
Output: 8.39

Input: Report inhibition for `Fc1cccc(COc2ccc(Nc3ncncc3C#Cc3ccccc3)cc2Cl)c1` tested on Cyclin-dependent kinase 2 (Homo sapiens) (UniProt P24941).
Output: 5.5

Input: Report inhibition for `COc1cc(Nc2ncc(-c3ccccc3)o2)cc(OC)c1` tested on Cyclin-dependent kinase 2 (Homo sapiens) (UniProt P24941).
Output: 12.7

Input: Report inhibition for `c1ccc(-c2n[nH]cc2-c2ccnc(-c3ccc(OCCn4ccnc4)cc3)c2)nc1` tested on Cyclin-dependent kinase 2 (Homo sapiens) (UniProt P24941).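 Further: mean inhibition of the CDK2–cyclin A kinase complex.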
Output: -8.72
